Give pKd for every item shown.
biological target: human BMP2 (Bone Morphogenetic Protein 2), disulfide-linked dimer (human, UniProt P12643 283-396); experiment: SPR
Sequence (P12643 283-396): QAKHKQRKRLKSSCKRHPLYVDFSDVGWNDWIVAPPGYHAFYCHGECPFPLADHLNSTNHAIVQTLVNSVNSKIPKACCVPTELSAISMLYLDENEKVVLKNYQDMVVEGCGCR
Answers are plain numbers, as −log10 of the molar value.

BINDER | pKd
RGMCND-G99R (domain or fragment) QCKILRCNAEYVSSTLSLRGGGSSGALRGGGGGGRGGGVGSGGLCRALRSYALCTRRTARTCRRDLAFHSAVHGIEDLMIQHNCSRQGPTAPPPPRGPALPGAGSGLPAPDP | 6.04
N-terminal domain of human RGMB (RGMBND) (domain or fragment) QCRIQKCTTDFVSLTSHLNSAVDGFDSEFCKALRAYAGCTQRTSKACRGNLVYHSAVLGISDLMSQRNCSKDGPTSSTNPEVTH | 7.06
N-terminal domain of human RGMC (RGMCND) (domain or fragment) QCKILRCNAEYVSSTLSLRGGGSSGALRGGGGGGRGGGVGSGGLCRALRSYALCTRRTARTCRGDLAFHSAVHGIEDLMIQHNCSRQGPTAPPPPRGPALPGAGSGLPAPDP | 6.91

Data request: Reported pKd, binder RGMCND-L101P (domain or fragment) QCKILRCNAEYVSSTLSLRGGGSSGALRGGGGGGRGGGVGSGGLCRALRSYALCTRRTARTCRGDPAFHSAVHGIEDLMIQHNCSRQGPTAPPPPRGPALPGAGSGLPAPDP : ____
Data returned: 5.82
